All values here come from the supplement of paper PMC11908140.

B1: library; numbered along this chain (parent)
chain: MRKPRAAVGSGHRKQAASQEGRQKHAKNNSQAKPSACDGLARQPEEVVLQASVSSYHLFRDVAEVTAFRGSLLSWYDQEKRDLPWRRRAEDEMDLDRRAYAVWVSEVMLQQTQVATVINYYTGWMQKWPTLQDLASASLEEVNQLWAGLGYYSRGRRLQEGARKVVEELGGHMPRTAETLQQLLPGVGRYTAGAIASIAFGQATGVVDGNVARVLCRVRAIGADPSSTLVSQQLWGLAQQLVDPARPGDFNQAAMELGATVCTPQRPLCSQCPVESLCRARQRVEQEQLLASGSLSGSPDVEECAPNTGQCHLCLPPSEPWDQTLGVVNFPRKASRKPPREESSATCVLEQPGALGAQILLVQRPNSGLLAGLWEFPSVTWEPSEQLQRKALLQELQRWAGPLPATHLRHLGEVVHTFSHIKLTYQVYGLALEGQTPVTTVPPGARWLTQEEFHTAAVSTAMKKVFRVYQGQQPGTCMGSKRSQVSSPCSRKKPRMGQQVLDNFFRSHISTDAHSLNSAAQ

variants of: B1; assay: 8OG:A repair function score (normalized; synonymous = 0, nonsense = -1) (normalized log-likelihood score); higher = more repair activity (WT-like); details: with 8OG:A DNA repair reporter (GFP) in HEK-293 MUTYH KO cells;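 also: cells sorted at 72 h after reporter transfection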
Outcome label depends on 8OG:A repair function score relative to -0.04: at/above gives met, below gives not met.

{"columns": ["changes", "class name"],
 "data": [
  ["D208N", "not met"],
  ["V261Y", "not met"],
  ["V500N", "met"],
  ["D208W", "not met"],
  ["T122E", "not met"],
  ["Q394K", "not met"],
  ["Y100H", "not met"],
  ["C311G", "not met"],
  ["M173P", "not met"],
  ["Q181F", "not met"],
  ["G39C", "met"],
  ["E160V", "met"],
  ["G205T", "not met"],
  ["R491D", "met"],
  ["T440R", "met"],
  ["T176N", "met"],
  ["A354E", "met"],
  ["Q232L", "not met"],
  ["Q358H", "not met"],
  ["Q323N", "met"],
  ["A199Y", "not met"],
  ["Q132V", "not met"],
  ["P306G", "met"],
  ["G155T", "not met"],
  ["Q126N", "met"],
  ["G434D", "not met"],
  ["L349I", "met"],
  ["E79P", "not met"],
  ["Q426I", "not met"],
  ["R281M", "not met"],
  ["T455H", "met"],
  ["D300K", "not met"],
  ["A305C", "met"],
  ["A89L", "met"],
  ["M173L", "met"],
  ["D224F", "not met"],
  ["A99Y", "not met"],
  ["Q499N", "met"],
  ["L257M", "not met"],
  ["A162I", "not met"],
  ["W374T", "not met"],
  ["P365V", "met"],
  ["G471Q", "met"],
  ["T263G", "not met"],
  ["Q239F", "not met"],
  ["L40K", "met"],
  ["I195Y", "not met"],
  ["V301L", "met"],
  ["I118C", "met"],
  ["C304R", "not met"],
  ["Q282H", "met"],
  ["T439N", "met"],
  ["M462G", "not met"],
  ["Q182M", "not met"],
  ["Q473Y", "met"],
  ["P225C", "not met"],
  ["Q265F", "met"],
  ["S487H", "met"],
  ["N517S", "met"],
  ["L95V", "met"],
  ["L72P", "not met"],
  ["W103Y", "not met"],
  ["Q286A", "met"],
  ["E451A", "not met"],
  ["A177G", "not met"],
  ["N119W", "not met"],
  ["Q202R", "not met"],
  ["R219K", "not met"],
  ["I509E", "met"],
  ["R98Y", "not met"],
  ["G150R", "not met"],
  ["V327D", "not met"],
  ["V47D", "met"],
  ["A147T", "not met"],
  ["G293L", "not met"],
  ["N366W", "not met"]
]}
